Assign EC50 to each entry below.
target system: human Farnesoid X Receptor (FXR) ligand binding domain (GST-FXR LBD) (Homo sapiens, UniProt Q96RI1)
Construct: purchased Invitrogen
Sequence (Q96RI1 193-472 isoform Q96RI1-2): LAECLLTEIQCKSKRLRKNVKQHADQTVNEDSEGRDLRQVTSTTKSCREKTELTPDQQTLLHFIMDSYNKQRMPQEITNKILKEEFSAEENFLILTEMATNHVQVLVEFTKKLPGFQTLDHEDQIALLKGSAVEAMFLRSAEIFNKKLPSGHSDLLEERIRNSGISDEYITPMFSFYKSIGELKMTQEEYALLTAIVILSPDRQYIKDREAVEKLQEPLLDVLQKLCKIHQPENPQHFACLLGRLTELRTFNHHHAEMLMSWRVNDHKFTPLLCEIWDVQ
procedure text: Human GST-FXR LBD co-activator interaction assay (HTRF)
Format: biochemical
assay setup: GST-FXR LBD / biotin-SRC-1 peptide FRET; response relative to GW4064; read-out: FXR Co-activator interaction assay (EC50)
Number only, in nM; omit the unit.

## Task Requested field: EC50. Item: COC(=O)c1cnc(N2C3CC[C@H]2CC(OCc2c(-c4ccccc4C(F)(F)F)noc2C2CC2)C3)cc1C(F)(F)F (stereo partly drawn)
## Result 250

## Task Requested field: EC50. Item: Cn1c(C(=O)O)cc2cc(N3C4CC[C@H]3CC(OCc3c(-c5ccccc5OC(F)(F)F)noc3C3CC3)C4)ccc21 (stereo partly drawn)
## Result 1.5

## Task Requested field: EC50. Item: Fc1cc(-c2nn[nH]n2)ccc1N1C2CC[C@H]1CC(OCc1c(-c3ccccc3OC(F)F)noc1C1CC1)C2 (stereo in doubt) [Example 26B]
## Result 0.3

## Task Requested field: EC50. Item: COC(=O)c1cnc(N2C3CC[C@H]2C[C@H](OCc2c(-c4ccccc4OC(F)(F)F)noc2C2CC2)C3)cn1
## Result 20

## Task Requested field: EC50. Item: COC(=O)c1ccc(N2C3CC[C@H]2CC(OCc2c(-c4ccccc4OC(F)F)noc2C2CC2)C3)c(F)c1 (stereo partly drawn)
## Result 9

## Task Requested field: EC50. Item: Cc1cc(C(=O)O)nc(N2[C@@H]3CC[C@H]2C[C@@H](OCc2c(-c4c(C)cccc4F)noc2C2CC2)C3)n1
## Result 6

====

target system: human Farnesoid X Receptor (FXR) ligand binding domain (GST-FXR LBD) (Homo sapiens, UniProt Q96RI1)
Construct: purchased Invitrogen
procedure text: Human GST-FXR LBD co-activator interaction assay (HTRF)
Type: biochemical
assay setup: GST-FXR LBD / biotin-SRC-1 peptide FRET; response relative to GW4064; read-out: FXR Co-activator interaction assay (EC50)
# label = T if EC50 < 9 nM else F

## Task Dear reviewer, please state whether COC(=O)c1cc(C)c2nc(N3[C@@H]4CC[C@H]3C[C@@H](OCc3c(-c5c(F)cccc5F)noc3C3CC3)C4)sc2c1 has EC50 strictly beneath 9 nM.
## Result F

## Task Dear reviewer, please state whether O=C(O)c1cnc(N2C3CC[C@H]2C[C@H](OCc2c(-c4ccccc4OC(F)(F)F)noc2C2CC2)C3)nc1C(F)(F)F has EC50 strictly beneath 9 nM.
## Result F

## Task Dear reviewer, please state whether O=C(O)c1cc(F)c2nc(N3C4CC[C@H]3CC(OCc3c(-c5ccccc5C(F)(F)F)noc3C3CC3)C4)sc2c1 (stereo in doubt) has EC50 strictly beneath 9 nM.
## Result T

## Task Dear reviewer, please state whether O=C(O)c1ccc(N2C3CC[C@H]2CC(OCc2c(-c4ccccc4OC(F)F)noc2C2CC2)C3)c(F)c1 (stereo partly drawn) has EC50 strictly beneath 9 nM.
## Result T

====

target system: human Farnesoid X Receptor (FXR) ligand binding domain (GST-FXR LBD) (Homo sapiens)
Construct: purchased Invitrogen
procedure text: Human GST-FXR LBD co-activator interaction assay (HTRF)
Format: biochemical
assay setup: GST-FXR LBD / biotin-SRC-1 peptide FRET; response relative to GW4064; read-out: FXR Co-activator interaction assay (EC50)
Assign pEC50 to each entry below.
API: returns pEC50 as number; meaning -log10 of concentration in mol/L.

## Task Requested field: pEC50. Item: O=C(NCCS(=O)(=O)O)c1ccc(N2C3CC[C@H]2C[C@H](OCc2c(-c4ccccc4OC(F)(F)F)noc2C2CC2)C3)nc1 [Example 16-4]
## Result 8.05

## Task Requested field: pEC50. Item: O=C(O)CNC(=O)c1cc(F)c2nc(N3C4CC[C@H]3C[C@H](OCc3c(-c5ccccc5OC(F)(F)F)noc3C3CC3)C4)sc2c1 [Example 15-2]
## Result 9.30

## Task Requested field: pEC50. Item: Cc1cc(C(=O)O)cc2sc(N3C4CC[C@H]3CC(OCc3c(-c5ccccc5F)noc3C3CC3)C4)nc12 (stereo partly drawn) [Example 30-34]
## Result 8.74
